Test: yeast display, Sf9 membrane polyspecificity reagent, FACS + sequencing; frameworks hold sequencing errors
READOUT_NAME: polyreactivity (PSR sort gate)

These recorded examples may help you get a feel for the data.
BIOSEQUENCE	polyreactivity (PSR sort gate)
QVQLVESGGGLVQAGGSLPLICADSGFISAYYAMGWYRQAPGKEREFVAGISKSGSSTSYADSVKGRFTISRDNAKKTVYLQMNSLKPEDTAVYYCAKYTPYYSELGYWGQGTQVTVSS	high polyreactivity
QVQLVDSRGGLVQAGGSLRLSCAASGFIFSRYAMGWSRQAPGKERELVAAISYRGGSTYYADSVKGRFTISRDNAKNPVYLQMNSLKPEDTAVYYCAASLRYYGLEMDYWGQGTQVTVSS	high polyreactivity
QVHLVESVGGLVQAGGSLRLSSAASGSTFGYYAMGWYRQAPGKERELVAAINARGGSTYYADSVKGRFTISRDNAKNTVYLQMNSLKPEDTAVYYCAAVHIYSYGIYDYWGQGTQVTVSS	high polyreactivity
QVQLVESGGGLVQAGGSLRLSCAASGYTFVYNGMGWYRQAPGKERELVAAITWGGAGTYYADSVKGRFTISRDNAKNTVYLQMISLKPEDTSVYYCAPPSPRSRAYTYRGDYWGQGTQVTVSS	low polyreactivity
QVQLVDSGAGLVQAGGSLSLTCAASGYTFYANAMGWYRQAPGKERELVAGINRSGSTYYADSVKGRFTISRDNAKNTVYLQMNSLKPEDTAVYYCATAWHRGVRGRTSGAFDYWGQGTQVTVSS	high polyreactivity

Answer for every listed entry: what is its polyreactivity (PSR sort gate)? The entries follow.
1. QVQLVESGGGLVQAGGSLRLSCAASGRIFSFNAMGRYRQAPGKERELVAAITWRGGSTYYADSVKGRFTISRDNAKNTVYLQMNSLKPEDTAVYYCNAYPFWRDYDYWGQGTQVTVSS
2. QVQLVESGGGLVQAGGSLRLSCAASGSISYRYVMGWYRQAPGKERELVAAITTSGGSTYYADSVKGRFTISRDNAKNTVYLQMNSLKPEDTAVYDCAAKHNVYRYSRYYWGQGTQVTVSS
3. QVQLVESGGGLVQAGGSLRLSCAASGLIFEEYAMGWYRQAPGKERELVAGIDSSGSTNYADSVKGRFTISRDNAKNTVYLQMNSLKPEDTAVYYCTARGYYPRWYYVFRGNYWGQGTQVTVSS
4. QVQLEESGGGLVQAGGSLRLSCAASGRIFSGNAKGWYRQAPGKERELVANITSSSNTNYADSVKGRFTISRDNAKNTVYLQMNSLKPEDTAVYYCAKSAHNGYSFYGYDYWGQGTQVTVSS
5. QVQHVESGGGLVQAGGGLRISCAASGSIFHVNAMGWSRLAPGKERELVAGISDGGSTYYADSVKGRFTFSRDTAKHTVYLQLNSLKPEDTAVYYSGAECEQWYSYVLSYDWEYDYWGQGTQVTVSS

["high polyreactivity", "high polyreactivity", "low polyreactivity", "low polyreactivity", "low polyreactivity"]

Supply reported polyreactivity (PSR sort gate) belonging to this sequence: `QVQLVESGGGLVQAGGSLRLSCAASGSTIDVYTMGWYRQAPGKERELVAAISRGSSTYYADSVKGRFTISRDNAKNTVYLQMNSLKPEDTAVYYCNAVTSRKYRRYGYGYWGQGTQVTVSS`
high polyreactivity

====

Assay: yeast display, Sf9 membrane polyspecificity reagent, FACS + sequencing; frameworks hold sequencing errors
READOUT_NAME: polyreactivity (PSR sort gate)

BIOSEQUENCE	RESULT
QVQLVESGGGLVQAGGSLRLSCAASGSIFVGNAMGWYRQAPGKERELVSTISRGARTKYADSVKGRFTISRDNAKNTVYLQMNSLKPEDTAVYYCNKVSSYYVFYTPYYSWGQGTQVTVSS	low polyreactivity
QDQLVESWVGLVQAGGSLRLSCAASGTISSYAMGWSRQAPGKERELVASIRYRGGSTYYADSVKGRFTISRDNEKNTVYLQINSLKPEDTAVYYCNAVRVPYVRGAKFEYWGQGTQVTVSS	low polyreactivity
QVQLVESGGGLVQAGGSLPLSCAASGSTFNGYAMGWYIQAPGKEWELVAVISSGGTTNYADSVKGRFTISRDNAKNTVYLQMNSLKPEDTAVYYCAADIGHRYHYRFDYWGQGTQVTVSS	low polyreactivity

Source: the nanobody polyreactivity screen of Harvey et al. (2022)
